- protocolNotes: Half life in po dosed human
- Assay type: ADME, organism-based
- measurementConditions: in vivo
reportedMetric: half-life

Enquiry: Find the recorded half-life belonging to `COC(=O)N(C)c1c(N)nc(-c2nn(Cc3ccccc3F)c3ncccc23)nc1N` and report it.
Return: 5 h

----------
- assayedSystem: Endothelin-1 receptor (Homo sapiens)
- Sequence (P25101 whole entry): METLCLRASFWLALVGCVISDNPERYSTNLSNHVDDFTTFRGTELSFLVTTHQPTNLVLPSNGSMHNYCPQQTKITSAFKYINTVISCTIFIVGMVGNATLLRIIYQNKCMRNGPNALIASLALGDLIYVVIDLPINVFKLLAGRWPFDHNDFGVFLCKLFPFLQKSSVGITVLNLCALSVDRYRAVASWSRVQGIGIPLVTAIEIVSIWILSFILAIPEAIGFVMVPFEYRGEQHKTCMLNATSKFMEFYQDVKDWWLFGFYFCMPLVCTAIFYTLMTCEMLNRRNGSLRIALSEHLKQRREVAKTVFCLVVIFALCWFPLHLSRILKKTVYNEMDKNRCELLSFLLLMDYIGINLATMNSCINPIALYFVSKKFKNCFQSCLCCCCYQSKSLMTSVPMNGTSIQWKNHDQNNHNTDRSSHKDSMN
- protocolNotes: Binding affinity to recombinant human ETA
reportedMetric: IC50 (µM)
Report only the number, with the unit µM understood.

Enquiry: Enter reported IC50 observed with Endothelin-1 receptor (Homo sapiens) for `O=S(=O)(Nc1ncnc(OCCO)c1-c1ccccc1)c1ccc(C(F)(F)F)cc1`
Return: 18
